System: PPARg:RXRa 90nM:30nM, anti-RXR (NR concentration 90 nM, RXRa partner concentration 30 nM)
Assay: PBM binding z-score (relative to random genomic background probes); higher = stronger binding; sequences stand for … in GC…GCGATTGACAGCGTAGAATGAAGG
Measured PBM binding z-score, listed per entry.
The reply should be a number, written without any unit.

Solved entries (count: 4):
{"columns": ["biopolymer-sequence", "PBM binding z-score"],
 "data": [
  ["TATACAGGGTCATAGGCCAGAGTACGAATGTCGA", 5.8],
  ["GCAGACAGGTGAAACGCAGGCAACTCAGGGTGGC", -0.565],
  ["ATCTCTAGGTAAAAGTTCAGTGAGTCCCGAGGAT", 9.16],
  ["ACTCGTAGGACAAAGGTCAGAGCTACGCCAGTGA", 8.26]
]}

Field: next sequence
Challenge: Query: PBM binding z-score; subject: TCATATGGGTAATACAGGTGAAAGTCGGCATCTA
Response given: 2.4
